# system_name: HLA-A*31:01
# experiment: IEDB peptide-MHC binding, purified MHC/competitive/radioactivity; filed as Kd, often an IC50 or EC50 that approximates it; bounds were set here for any values at or beyond the usual limits of such assays
# applied_conditions: source organism: Dengue virus 4 Philippines/H241/1956
assay_metric: Kd (nM)
Provide the reading as a plain figure in nM.

Req: What is its Kd for HLA-A*31:01? Entry: AIKILTGFR
Resp: 54.7

* * *

# system_name: HLA-B*18:01
# experiment: IEDB peptide-MHC binding, purified MHC/competitive/fluorescence; filed as Kd, often an IC50 or EC50 that approximates it; bounds were set here for any values at or beyond the usual limits of such assays
# applied_conditions: source organism: Orthohantavirus negraense
assay_metric: Kd

Req: Field request: Kd | item: SLLFREVWK
Resp: ≥ 20 µM
